System: RARg:RXRa (NR concentration 270 nM, RXRa partner concentration 90 nM)
PROCEDURE_DETAILS: PBM binding z-score (relative to random genomic background probes); higher = stronger binding; sequences stand for … in GC…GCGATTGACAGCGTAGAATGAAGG
Labels assigned by PBM binding z-score range: interval 1: < 3; interval 2: ≥ 3 and < 5; interval 3: ≥ 5

# example entries with known answers
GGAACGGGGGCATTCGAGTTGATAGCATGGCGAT :: interval 1
TTACCAAGGTGAAAGGTCATTGATGCACGCCTTG :: interval 3
CTATGTAGGTTAAGGGGGTCATACAGTTTGAAAG :: interval 3

Query: Hi, small favor: classify `GCTATTAGGTGAAAGGGCAACCGAATGATTCTCG` by its PBM binding z-score when you get a moment.
Result: interval 1

Query: Hi, small favor: classify `CAATGTAGGTTAAGGGGGTCATTCAGTTTGAAAG` by its PBM binding z-score when you get a moment.
Result: interval 3

Query: Hi, small favor: classify `CGAACTAGGTCAAAGGAAAGTGAAAGGCGACGTA` by its PBM binding z-score when you get a moment.
Result: interval 2

Query: Hi, small favor: classify `TCGAGTAAGTTACGGGGGCATTCAGGGATGAAGA` by its PBM binding z-score when you get a moment.
Result: interval 1

Query: Hi, small favor: classify `CCTTACGGGTCAAGGTTGTAGCACGGGTGGTACG` by its PBM binding z-score when you get a moment.
Result: interval 2

Query: Hi, small favor: classify `ACTAGCAGGCCAAGAGTCACTCAAGATTAGTCCG` by its PBM binding z-score when you get a moment.
Result: interval 1

Query: Hi, small favor: classify `CCTAGTTGGTCAGGAGGTCACATACCGGATATGA` by its PBM binding z-score when you get a moment.
Result: interval 2

Query: Hi, small favor: classify `GCTGCTAGGTCAACTGATGGTCAGCTAAAGCTCG` by its PBM binding z-score when you get a moment.
Result: interval 3

Query: Hi, small favor: classify `ATATGTAGGTTAGGGTCATTCTGAAAGTAGGGAA` by its PBM binding z-score when you get a moment.
Result: interval 2

Query: Hi, small favor: classify `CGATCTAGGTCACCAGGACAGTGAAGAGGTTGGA` by its PBM binding z-score when you get a moment.
Result: interval 2

Query: Hi, small favor: classify `CGAACTAGGTCACCAGTACAGTGAAGAGGTTGGA` by its PBM binding z-score when you get a moment.
Result: interval 2

Query: Hi, small favor: classify `CCTACTGGGCCACGAAAGGTGATTGATTCAGTGA` by its PBM binding z-score when you get a moment.
Result: interval 1

Query: Hi, small favor: classify `CTATGTAGGTTAAGGGGGGCATTCAGTTTGAAAG` by its PBM binding z-score when you get a moment.
Result: interval 2

Query: Hi, small favor: classify `CTCGAAAGGTCGTCCTCAGGTGAGTATACCAAAC` by its PBM binding z-score when you get a moment.
Result: interval 3
